Target: T1, human LIGHT (TNFSF14), full length, membrane-bound (214E allele) (human, UniProt O43557 1-240)
T1 construct: also called membrane LIGHT; human membrane LIGHT
T1 sequence (O43557 whole entry K214E): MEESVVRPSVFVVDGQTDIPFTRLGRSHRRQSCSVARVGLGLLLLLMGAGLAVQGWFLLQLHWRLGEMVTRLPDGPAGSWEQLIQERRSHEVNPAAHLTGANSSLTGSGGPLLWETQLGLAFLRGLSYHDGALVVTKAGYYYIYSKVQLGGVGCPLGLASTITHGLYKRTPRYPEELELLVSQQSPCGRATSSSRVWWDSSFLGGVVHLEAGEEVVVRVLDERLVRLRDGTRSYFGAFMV
Experiment: competition with biotin-LTβR-Fc, EL4-LIGHT cells, flow cytometry
Provide the recorded IC50 for the entries that follow.
Answers are plain numbers, in pM.

INSERT INTO results (binder, measurement_units, readout_value) VALUES
  ('3B04 (antibody, human IgG4, V domains shown, chimeric: mouse variable domains on human IgG4 HC (S-to-P and L-to-E at 248) and human CL; also called Parental 3B04; 3B04 chimeric) VH: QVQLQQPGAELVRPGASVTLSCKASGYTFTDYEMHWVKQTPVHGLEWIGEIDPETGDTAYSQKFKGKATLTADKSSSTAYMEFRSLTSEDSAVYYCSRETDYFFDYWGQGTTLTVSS VL: DIQMTQTPASLSASVGETVTITCGASENIYGALNWYQRKQGKSPQLLIYGATNLADGMSSRFSGSGSGRQYSLKISSLHPDDFATYYCQNVLTTPWTFGGGTKLEIKR', 'pM', 190);

Consider now this further binder.
Please give the measured IC50 for this binder: 3D12 (antibody, human IgG4, V domains shown, chimeric: mouse variable domains on human IgG4 HC (S-to-P and L-to-E at 248) and human CL; also called Parental 3D12; 3D12 chimeric) VH: QVQLQQPGAELVRPGASVTLSCKASDYTFTDSEIHWVKQTPVHGLEWIGEIDPETGGTAYNQKFKGKATLTADKSSSTAYMELRSLTSEDSAVYYCSRETDYFFDYWGQGTTLTVSS VL: DIQMTQSPASLSASVGETVTITCGASENIYGALNWYQRKQGKSPQLLIYGATNLADGMSSRFSGSGSGRQYSLKISSLHPDDVATYYCQNVLSTPWTFGGGTKLEIKR
190
